Source: patent US5576319A

molecular target: human dopamine D2 receptor subtype (Homo sapiens); construct: expressed in transfected cells; test: [3H]-Spiperone binding, displacement from human dopamine D2 receptor subtype expressed in clonal cell lines
Sequence (P14416 whole entry): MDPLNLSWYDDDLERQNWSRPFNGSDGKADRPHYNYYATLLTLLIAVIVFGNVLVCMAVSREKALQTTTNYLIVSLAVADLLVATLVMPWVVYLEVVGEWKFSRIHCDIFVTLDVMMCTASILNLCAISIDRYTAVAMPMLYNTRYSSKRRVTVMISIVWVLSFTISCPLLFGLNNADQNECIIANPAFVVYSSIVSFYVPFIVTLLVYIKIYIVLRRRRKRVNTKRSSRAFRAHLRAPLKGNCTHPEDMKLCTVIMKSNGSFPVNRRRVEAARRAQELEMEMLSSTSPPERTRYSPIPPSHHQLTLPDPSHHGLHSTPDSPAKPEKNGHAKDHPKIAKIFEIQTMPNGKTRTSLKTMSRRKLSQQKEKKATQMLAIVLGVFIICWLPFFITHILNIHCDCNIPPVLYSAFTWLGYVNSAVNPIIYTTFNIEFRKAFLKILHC
measurement_name: Ki (nM)
Give bare numbers, in nM.

*Q* Query (compound): `Clc1ccc(N2CCN(Cc3c[nH]c4ncccc34)CC2)cc1` ; field requested: Ki
*A* 860
